- MEASURED_TARGET: T1, recombinant mouse FcγRIIB expressed in NS0 cells (mouse, UniProt P08101 40-207, limits assumed)
- T1 construct: Bought from R&D Systems; soluble analyte injected in SPR; also called rmFcgRIIB (NSO); CD32-B
- T1 sequence (looked up): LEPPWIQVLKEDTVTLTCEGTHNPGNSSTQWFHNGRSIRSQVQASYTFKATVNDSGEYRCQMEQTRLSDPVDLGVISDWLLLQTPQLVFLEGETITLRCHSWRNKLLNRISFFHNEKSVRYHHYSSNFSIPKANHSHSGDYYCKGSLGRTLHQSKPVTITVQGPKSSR
- PROTOCOL_SUMMARY: SPR (Biacore); capture sample on chip, rmFcgRIIB (NSO) injected; reference Herceptin
METRIC: Fold Increase in RU vs WT IgG1 (fold)

{"columns": ["BINDER", "METRIC", "MEASURE_UNIT", "RESULT_NUMBER"],
 "data": [
  ["183-D4/F241A/L328F Fc (SEQ ID NO12) (other, Human IgG1 Fc fragment with F241A, K317E, K326E, L328F, A339T, Q342R, K414R (EU)) AEPKSCDKTHTCPPCPAPELLGGPSVALFPPKPKDTLMISRTPEVTCVVVDVSHEDPEVKFNWYVDGVEVHNAKTKPREEQYNSTYRVVSVLTVLHQDWLNGEEYKCKVSNEAFPAPIEKTISKTKGRPREPQVYTLPPSRDELTKNQVSLTCLVKGFYPSDIAVEWESNGQPENNYKTTPPVLDSDGSFFLYSKLTVDRSRWQQGNVFSCSVMHEALHNHYTQKSLSLSPGK", "Fold Increase in RU vs WT IgG1", "fold", 1.3]
]}
